Parameter log10 of Ki: see the listing below.
Target: Muscarinic acetylcholine receptor
Assay: In vitro binding affinity for muscarinic receptor by displacing [3H]oxotremorine-M binding on rat brain homogenate.
Type: tissue-based
measurement.name: log10 of Ki (log10 of the value in µM)

| compound | log10 of Ki |
| --- | --- |
| CCn1nnc(C2=CCCN(C(C)C)C2)n1 | -0.52 |
| Cn1ncc(C2=CCCNC2)n1 | -3.47 |
| CCCn1ncc(C2=CCCNC2)n1 | -2.21 |
| CC1C=C(c2nnn(C)n2)CNC1 (stereo unspecified) | -1.16 |
| CCn1nnc(C2CCCNC2)n1 (racemic) | -0.64 |
| C=CCn1ncc(C2CCCNC2)n1 (racemic) | -1.60 |

====

Target: Muscarinic acetylcholine receptor
Experiment: In vitro binding affinity for muscarinic receptor by displacing [3H]oxotremorine-M binding on rat brain homogenate.
Assay type: tissue-based
Attribute: log10 Ki
measurement.name: log10 Ki (log10 of the value in nM)

| compound | target.under.test | log10 Ki |
| --- | --- | --- |
| C#CCn1ncc(C2CCCNC2)n1 (single isomer, unassigned; (+)) | Muscarinic acetylcholine receptor | 0.72 |
| CCN1C(=O)CC2(CCN(C)CC2)C1=O | Muscarinic acetylcholine receptor | 1.15 |
| CCn1ncc(C2=CCCNC2)n1 | Muscarinic acetylcholine receptor | 0.57 |
| C#CCn1ncc(C2=CC(C)CNC2)n1 (configuration not stated) | Muscarinic acetylcholine receptor | 1.49 |
| CCCCN1CCC=C(c2nnn(CC)n2)C1 | Muscarinic acetylcholine receptor | 2.53 |
| C=CCn1nnc(C2=CCCN(C)C2)n1 | Muscarinic acetylcholine receptor | 1.11 |
| C=Cn1ncc(C2=CCCN(C)C2)n1 | Muscarinic acetylcholine receptor | 1.52 |
| CCCCn1ncc(C2=CCCN(C)C2)n1 | Muscarinic acetylcholine receptor | 0.40 |
| CN1CCC=C(c2nnnn2C)C1 | Muscarinic acetylcholine receptor | 3.73 |
| C=Cn1nnc(C2=CCCN(C)C2)n1 | Muscarinic acetylcholine receptor | 1.96 |
| C[N+](C)(C)CC#CCOC(=O)Nc1cccc(Cl)c1.[Cl-] | Muscarinic acetylcholine receptor | 1.26 |
| CCCCCn1nnc(C2=CCCN(C)C2)n1 | Muscarinic acetylcholine receptor | 1.20 |
| C#CCn1nnc(C2CCCNC2)n1 (racemic) | Muscarinic acetylcholine receptor | 1.49 |
| CCCCn1nnc(C2=CCCN(C)C2)n1 | Muscarinic acetylcholine receptor | 0.70 |
| C#CCn1ncc(C2CCCNC2)n1 (racemic) | Muscarinic acetylcholine receptor | 0.40 |
| CN1CCC=C(c2nnn(C)n2)C1 | Muscarinic acetylcholine receptor | 0.79 |
| CCCCCCCCn1nnc(C2=CCCN(C)C2)n1 | Muscarinic acetylcholine receptor | 1.85 |

====

Species on record: Rattus norvegicus
Experiment: Ratio of binding affinity at [3H]quinuclidinyl benzilate binding on rat brain stem homogenate to [3H]pirenzepine binding on rat brain homogenate
As shown below, each of these compounds has a reported Ratio value.

| compound | Ratio |
| --- | --- |
| CCCn1ncc(C2=CCCN(C)C2)n1 | 2.5 |
| CCn1ncc(C2CCCNC2)n1 (racemic) | 1.1 |
| C[N+](C)(C)CC#CCOC(=O)Nc1cccc(Cl)c1.[Cl-] | 0.8 |
| CCn1ncc(C2=CCCN(C)C2)n1 | 2.5 |

====

Items are presented alongside their recorded Ki.
Target: Muscarinic acetylcholine receptor
Assay: In vitro binding affinity for muscarinic receptor by displacing [3H]quinuclidinyl benzilate binding on rat brain stem homogenate.
Assay type: tissue-based

| molecule | reading.unit | Ki |
| --- | --- | --- |
| Cn1ncc(C2=CCCNC2)n1 | nM | 90 |
| CCn1ncc(C2=CCCN(C)C2)n1 | nM | 61 |
| C=CCn1nnc(C2=CCCN(C)C2)n1 | nM | 46 |
| CCn1nnc(C2=CCCN(C)C2)n1 [ALVAMELINE] | nM | 340 |
| C#CCn1ncc(C2=CCCN(C)C2)n1 | nM | 22 |
| CCN1C(=O)CC2(CCN(C)CC2)C1=O | nM | 400 |
| CCCCn1ncc(C2=CCCNC2)n1 | nM | 130 |
| CCCCCCn1nnc(C2=CCCN(C)C2)n1 | nM | 220 |
| CN1CCC=C(c2nnn(C)n2)C1 | nM | 230 |
| CCn1nnc(C2=CCCNC2)n1 | nM | 280 |
| CCn1ncc(C2CCCNC2)n1 (racemic) | nM | 280 |

====

These molecules were tested on Muscarinic acetylcholine receptor M1 (Rattus norvegicus); Ki is the recorded read-out.
Sequence (P08482 whole entry): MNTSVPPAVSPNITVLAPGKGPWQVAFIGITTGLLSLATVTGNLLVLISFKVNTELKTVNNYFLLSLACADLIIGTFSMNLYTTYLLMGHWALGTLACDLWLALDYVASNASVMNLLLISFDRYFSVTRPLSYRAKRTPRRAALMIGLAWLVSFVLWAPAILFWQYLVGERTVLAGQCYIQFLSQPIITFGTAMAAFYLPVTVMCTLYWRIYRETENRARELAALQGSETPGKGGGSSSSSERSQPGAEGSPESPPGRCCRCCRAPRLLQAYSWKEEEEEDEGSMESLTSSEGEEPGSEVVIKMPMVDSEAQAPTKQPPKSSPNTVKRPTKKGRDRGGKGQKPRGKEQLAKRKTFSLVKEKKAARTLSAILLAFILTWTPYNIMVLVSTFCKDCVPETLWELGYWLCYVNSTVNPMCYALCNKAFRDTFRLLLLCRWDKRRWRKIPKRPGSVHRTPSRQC

| molecule | reading.unit | Ki |
| --- | --- | --- |
| CN1CCC=C(c2cnn(C)n2)C1 | nM | 35 |
| CCCCCCCCn1nnc(C2=CCCN(C)C2)n1 | nM | 27 |
| CCN1C(=O)CC2(CCN(C)CC2)C1=O | nM | 400 |
| CCCn1ncc(C2=CCCN(C)C2)n1 | nM | 15 |
| CCn1ncc(C2=CCCN(C)C2)n1 | nM | 24 |
| Cn1nnc(C2=CCCNC2)n1 | nM | 1350 |
| C=CCn1ncc(C2CCCNC2)n1 (stereo in doubt; (-)-15b) | nM | 170 |
| CCn1cc(C2=CCCN(C)C2)nn1 | nM | 770 |
| C[N+](C)(C)CC#CCOC(=O)Nc1cccc(Cl)c1.[Cl-] | nM | 600 |
| CN1CCCC(c2nnn(C)n2)C1 (racemic) | nM | 4800 |
| Cn1nnc(C2CCCNC2)n1 (racemic) | nM | 2300 |
| C=CCn1ncc(C2CCCNC2)n1 (single isomer, unassigned; (+)) | nM | 210 |
| CN1CCC=C(c2nnnn2C)C1 | nM | 24000 |
| C#CCn1nnc(C2=CCCN(C)C2)n1 | nM | 44 |
| CCCCN1CCC=C(c2nnn(CC)n2)C1 | nM | 1400 |
| CCCCn1ncc(C2=CCCN(C)C2)n1 | nM | 13 |
| CCn1ncc(C2=CCCNC2)n1 | nM | 120 |
| C#CCn1ncc(C2CCCNC2)n1 (racemic) | nM | 84 |
| C#CCn1ncc(C2CCCNC2)n1 (stereo in doubt; (-)-15c) | nM | 140 |
| C#CCn1ncc(C2CCCNC2)n1 (single isomer, unassigned; (+)) | nM | 170 |
| CCn1nnc(C2CCCNC2)n1 (racemic) | nM | 1100 |
| C#CCn1nnc(C2CCCNC2)n1 (racemic) | nM | 260 |
| C=CCn1ncc(C2CCCNC2)n1 (racemic) | nM | 100 |
| CCn1nnc(C2=CCCN(C(C)C)C2)n1 | nM | 270 |
| CCn1ncc(C2CCCNC2)n1 (racemic) | nM | 260 |
| CC(C)n1nnc(C2=CCCN(C)C2)n1 | nM | 84 |
| CCn1nnc(C2=CCCN(C)C2)n1 | nM | 36 |

====

Quick list: ED50 per entry.
Biological target: Muscarinic acetylcholine receptor M2 (Mus musculus)
Experiment: In vivo determination of peripheral M2 receptor mediated salivation, cholinergic side effect

| compound | ED50 |
| --- | --- |
| C=CCn1ncc(C2CCCNC2)n1 (stereo in doubt; (-)-15b) | > 130 µmol/kg |
| CCn1nnc(C2=CCCN(C)C2)n1 | > 120 µmol/kg |
| C=CCn1ncc(C2CCCNC2)n1 (single isomer, unassigned; (+)) | > 260 µmol/kg |
| C[N+](C)(C)CC#CCOC(=O)Nc1cccc(Cl)c1.[Cl-] | > 63 µmol/kg |

====

Biological target: Muscarinic acetylcholine receptor
Test: In vitro binding affinity for muscarinic receptor by displacing [3H]quinuclidinyl benzilate binding on rat brain homogenate
Format: tissue-based

| compound | target.under.test | reading.unit | Ki |
| --- | --- | --- | --- |
| C#CCn1nnc(C2=CCCN(C)C2)n1 | Muscarinic acetylcholine receptor | nM | 230 |
| C#CCn1ncc(C2CCCNC2)n1 (stereo in doubt; (-)-15c) | Muscarinic acetylcholine receptor | nM | 270 |
| C#CCn1ncc(C2CCCNC2)n1 (racemic) | Muscarinic acetylcholine receptor | nM | 320 |
| CCn1nnc(C2=CCCNC2)n1 | Muscarinic acetylcholine receptor | nM | 1600 |
| Cn1ncc(C2=CCCNC2)n1 | Muscarinic acetylcholine receptor | nM | 570 |
| CCCn1ncc(C2=CCCN(C)C2)n1 | Muscarinic acetylcholine receptor | nM | 47 |

====

Species: Rattus norvegicus
Experiment: Ratio of binding affinity at [3H]quinuclidinyl benzilate binding on rat brain homogenate to [3H]- Oxotremorine-M binding on rat brain homogenate
Assay type: functional
One threshold, 20, splits the recorded Ratio values: lower ones are class 1, equal or higher ones are class 0.

| molecule | cat |
| --- | --- |
| C=Cn1nnc(C2=CCCN(C)C2)n1 | class 1 |
| C[N+](C)(C)CC#CCOC(=O)Nc1cccc(Cl)c1.[Cl-] | class 0 |
| CCCn1ncc(C2=CCCN(C)C2)n1 | class 1 |
| C=CCn1ncc(C2CCCNC2)n1 (single isomer, unassigned; (+)) | class 1 |
| CCCn1ncc(C2=CCCNC2)n1 | class 0 |
| CCCCn1ncc(C2=CCCN(C)C2)n1 | class 1 |
| C#CCn1ncc(C2CCCNC2)n1 (stereo in doubt; (-)-15c) | class 0 |
| C=CCn1nnc(C2=CCCN(C)C2)n1 | class 1 |
| C=CCn1ncc(C2CCCNC2)n1 (racemic) | class 0 |
| CCn1ncc(C2=CCCN(C)C2)n1 | class 0 |
| CCCCn1ncc(C2=CCCNC2)n1 | class 0 |
| CCCCCn1nnc(C2=CCCN(C)C2)n1 | class 1 |
| C=CCn1ncc(C2=CCCN(C)C2)n1 | class 1 |
| C#CCn1ncc(C2=CCCN(C)C2)n1 | class 0 |
| CCN1C(=O)CC2(CCN(C)CC2)C1=O | class 0 |

All values here come from ChEMBL document CHEMBL1127749.
